B1: TEKT4 (parent)
chain: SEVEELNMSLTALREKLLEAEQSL

- Variants of: B1
- protocol-notes: protein stability index of a GFP-peptide fusion (GPS, HEK-293T) (PSI 1-6); higher = more stable;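 note: lentivirally expressed fusions sorted by FACS into six bins by GFP to DsRed ratio, PSI derived from sequencing read proportions per bin multiplied by bin number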
- experimental-setup: c terminus: a fixed tail appended
Label MET when protein stability index is at or above 3; anything below gets NOT MET.

The following variants have reported results that may help.
L10R | MET
E15C | NOT MET
N7C | NOT MET
E4V | NOT MET
E2L | NOT MET

Confirm if protein stability index reported for the variant V3C is 3 or above.
MET

All values here come from the supplement of paper PMC10567573.
